Reported MFI by item:
TARGET SYSTEM: T1, human wild-type EGFR protein on the cell surface (human, UniProt P00533 25-1210)
T1 construct: whole, on cells; Endogenous on A431, HEB, U87MG cells and normal human primary hepatocytes; transfected on CHOk1-EGFR cells; The cell is named under assay; also called A431; HEB
TEST PROTOCOL: FACS on A431 tumor cells

- BINDER: "Humanized antibody h75G7C6-13 (antibody, human IgG1, V domains shown, also called VH-g2/VL-g0) VH: QVQLVQSGAEVKKPGASVKVSCKASGYTFTDYNMDWVKQAPGQGLEWIGDINPNNADTIYNQKFKGRVTLTVDKSTSTVYMELSSLRSEDTAVYYCARGDYDGYYPVYYAMDYWGQGTTVTVSS VL: EIVLTQSPATLSLSPGERATLSCRASSSVSSSYLHWYQQKPGQAPRLLIYSTSNLAAGIPARFSGSGSGTDFTLTISSLEPEDFAVYYCQQYSGYPLTFGGGTKVEIK"
  MFI / MFI: 11500
- BINDER: "Humanized antibody h75G7C6-14 (antibody, human IgG1, V domains shown, also called VH-g2/VL-g1) VH: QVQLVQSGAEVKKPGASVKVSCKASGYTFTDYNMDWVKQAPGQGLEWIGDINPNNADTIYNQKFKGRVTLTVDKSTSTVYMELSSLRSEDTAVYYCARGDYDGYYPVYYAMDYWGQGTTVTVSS VL: ENVLTQSPATLSLSPGERATLSCRASSSVSSSYLHWYQQKPGQAPRLLIFSTSNLAAGIPARFSGSGSGTDYTLTISSLEPEDFAVYYCQQYSGYPLTFGGGTKVEIK"
  MFI / MFI: 11500
- BINDER: "Humanized antibody h75G7C6-16 (antibody, human IgG1, V domains shown, also called VH-g2/VL-g3) VH: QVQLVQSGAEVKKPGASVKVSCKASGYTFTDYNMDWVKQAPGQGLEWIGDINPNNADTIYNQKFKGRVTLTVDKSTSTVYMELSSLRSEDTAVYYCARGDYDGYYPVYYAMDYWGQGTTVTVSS VL: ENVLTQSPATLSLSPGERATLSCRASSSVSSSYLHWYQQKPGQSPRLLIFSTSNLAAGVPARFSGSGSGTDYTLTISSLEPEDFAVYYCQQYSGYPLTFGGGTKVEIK"
  MFI / MFI: 12400
- BINDER: "Humanized antibody h75G7C6-9 (antibody, human IgG1, V domains shown, also called VH-g1/VL-g0) VH: QVQLVQSGAEVKKPGASVKVSCKASGYTFTDYNMDWVRQAPGQGLEWIGDINPNNADTIYNQKFKGRVTLTVDTSTSTVYMELSSLRSEDTAVYYCARGDYDGYYPVYYAMDYWGQGTTVTVSS VL: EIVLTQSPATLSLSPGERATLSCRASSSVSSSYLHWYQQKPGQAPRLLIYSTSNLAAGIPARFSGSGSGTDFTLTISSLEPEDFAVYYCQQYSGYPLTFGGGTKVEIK"
  MFI / MFI: 10700
- BINDER: "Humanized antibody h75G7C6-15 (antibody, human IgG1, V domains shown, also called VH-g2/VL-g2) VH: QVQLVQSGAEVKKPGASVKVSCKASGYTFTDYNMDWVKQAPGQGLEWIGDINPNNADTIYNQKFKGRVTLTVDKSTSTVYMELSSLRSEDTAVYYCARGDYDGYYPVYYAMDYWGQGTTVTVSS VL: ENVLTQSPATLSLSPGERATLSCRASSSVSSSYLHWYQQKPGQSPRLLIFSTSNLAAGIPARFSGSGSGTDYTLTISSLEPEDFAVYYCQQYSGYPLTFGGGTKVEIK"
  MFI / MFI: 13000

These measurements were taken from patent US20210032351A1.
